# tgt: T1, MBNL1 (1-272) (UniProt Q9NR56 1-272)
# T1 sequence: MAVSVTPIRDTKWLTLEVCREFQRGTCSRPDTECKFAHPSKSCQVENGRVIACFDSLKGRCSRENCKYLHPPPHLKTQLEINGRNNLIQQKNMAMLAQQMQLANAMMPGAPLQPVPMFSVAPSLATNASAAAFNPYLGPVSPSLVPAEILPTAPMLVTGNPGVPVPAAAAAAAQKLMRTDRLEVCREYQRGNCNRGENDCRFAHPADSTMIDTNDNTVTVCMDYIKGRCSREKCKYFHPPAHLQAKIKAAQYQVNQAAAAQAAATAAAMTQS
# measurement-protocol: EMSA
parameter-measured: Kd (nM)
Reply numerically in nM, unit not repeated.

// query # input binder: CCUGCCUGCCUGCCUGCCUGCCUG (structured_RNA) [(CCUG)6] ; wanted: its Kd
// result 30
